Assignment: determine reported z-score for the given sequences.
experiment: Components of the Cytosolic LPS Sensing Pathway: Gene Identification via Genome-wide siRNA Screen; conditions: RAW264.7 macrophages, IL-1a HTRF, actives lie on both sides, screened at 100 nM (by protocol), cells primed 5 h with Pam3CSK4 first;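 further: robust z of the log signal after scaling to non-targeting control siRNA wells of the plate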
In all, about 53,000 sequences went through this assay and about 3,700 (7%) were called active. This excerpt belongs to a sample that is enriched for actives.
Number only, no unit.

Prompt: Identify z-score associated with the sequence GCAUAGGGUCAUUUCAAGCTT against Kif23
Completion: 0.0957

Prompt: Identify z-score associated with the sequence CCGUAAGUCUCGGAUCUCCTT against Plcxd1
Completion: 0.373

Prompt: Identify z-score associated with the sequence CCUGUACAUUGUGUAAUGUTT against Pcdh8
Completion: 0.0925

Prompt: Identify z-score associated with the sequence GAUCUAUCACCGGUACUGCTT against Gys1
Completion: 0.154

Prompt: Identify z-score associated with the sequence GGGCUUCAACACUGAGAAGTT against Arl4d
Completion: -1.04

Prompt: Identify z-score associated with the sequence CCAGUGUUUGACUUGACCATT against Dpysl3
Completion: 0.228

Prompt: Identify z-score associated with the sequence GGACACUUCCAAGUAUUGGTT against Tns1
Completion: -2.11

Prompt: Identify z-score associated with the sequence GGACCUGUCCAUCUUCAUCTT against Scn1b
Completion: 3.87

Prompt: Identify z-score associated with the sequence GGUCUGUGGACUGAACUUATT against Bcl2l11
Completion: -2.6

Prompt: Identify z-score associated with the sequence GGACGGGAUUGAGCCUAUGTT against Eif4e
Completion: 1.65

Prompt: Identify z-score associated with the sequence GGUAUUGUGGCCAGUAUUUTT against Ptdss2
Completion: 0.185

Prompt: Identify z-score associated with the sequence GGCAGAGCCAGGAUGUCUUTT against Msmb
Completion: -1.2

Prompt: Identify z-score associated with the sequence CCCACAAGUUUCAUCUGACTT against Aknaos
Completion: -0.164

Prompt: Identify z-score associated with the sequence GGACCUCCUCCCAAAGAUATT against Snrpb
Completion: -2.83

Prompt: Identify z-score associated with the sequence GGCACAGAGAUUGAAGAUCTT against Sry
Completion: 2.04

Prompt: Identify z-score associated with the sequence GGAAACAAAGUCAAUGUGGTT against Cnn1
Completion: -0.522

Prompt: Identify z-score associated with the sequence GGUGCUAGUGGUGACCAUGTT against Pign
Completion: 2.2

###

Experiment: Components of the Cytosolic LPS Sensing Pathway: Gene Identification via Genome-wide siRNA Screen;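 further: robust z of the log signal after scaling to non-targeting control siRNA wells of the plate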
Settings: RAW264.7 macrophages, IL-1a HTRF, actives lie on both sides, screened at 100 nM (by protocol), cells primed 5 h with Pam3CSK4 first
Method: Non-canonical inflammasome activation by cytosolic LPS is a critical component of the host response to Gram-negative bacterial infection, however we lack a comprehensive understanding of the cellular processes that control this pathway. […] Lipofectamine RNAiMAX Transfection Reagent ([…]; Invitrogen) was added in […] serum-free, antibiotic-free media to plate wells using a Thermo Scientific Matrix WellMate and Microplate Stacker. […] The plates were read on an EnVision plate reader (PerkinElmer). […]
About 3,700 (7%) of roughly 53,000 sequences were called active. This excerpt belongs to a sample that is enriched for actives.
Assignment: determine reported z-score for the given sequences.

Prompt: Identify z-score associated with the sequence GGCCUGGUGCUACUUCUCATT against Fam160a2
Completion: -0.0704 (inactive)

Prompt: Identify z-score associated with the sequence GGAGGACGUGAACUUUGACTT against Stk32c
Completion: 0.648 (inactive)

Prompt: Identify z-score associated with the sequence GGAAACAACAACUGUCACATT against Defb40
Completion: -2.13 (active)

Prompt: Identify z-score associated with the sequence GCCAGCUACCGAGUCUAUUTT against Tkt
Completion: 2.8 (active)

Prompt: Identify z-score associated with the sequence GGUAGACUCUAGAUUAAGATT against Srrm2
Completion: -0.58 (inactive)

Prompt: Identify z-score associated with the sequence GGUGUACAGAUCUGUCUGGTT against Dkk1
Completion: 2.33 (active)

Prompt: Identify z-score associated with the sequence GGAAGAAUCGGAUCAAGAUTT against Dpep2
Completion: 0.153 (inactive)

Prompt: Identify z-score associated with the sequence GCCUACAUAACCUUAAUAUTT against Slc4a10
Completion: 2.2 (active)

Prompt: Identify z-score associated with the sequence GCUGAUGGACAAAUUCCACTT against Rapgef1
Completion: 0.505 (inactive)

###

experiment: Components of the Cytosolic LPS Sensing Pathway: Gene Identification via Genome-wide siRNA Screen; conditions: RAW264.7 macrophages, IL-1a HTRF, actives lie on both sides, screened at 100 nM (by protocol), cells primed 5 h with Pam3CSK4 first;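 further: robust z of the log signal after scaling to non-targeting control siRNA wells of the plate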
Hit rate of the full screen: of about 53,000 sequences, about 3,700 (7%) were called active.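 Rule for the calls: active = gene knockdowns whose robust z-score for IL-1 alpha signal is at least 2 or at most -2, so actives lie on both sides; inactive = the rest.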 This is one part of a sample in which actives are shown more often than they occur.
Tick one outcome: active, inactive

Prompt: Which outcome was entered for the sequence GGAAACCUGAUGAUCUUUUTT against Olfr421-ps1 in this test?
Completion: inactive

Prompt: Which outcome was entered for the sequence CGAUAUGAAGCGAAAUAUCTT against Pmpca in this test?
Completion: inactive

Prompt: Which outcome was entered for the sequence CCUUAAAACAGAUCCACUUTT against Nell2 in this test?
Completion: inactive

Prompt: Which outcome was entered for the sequence GGACAAUGCCCUGUAUCAGTT against Clic3 in this test?
Completion: inactive

Prompt: Which outcome was entered for the sequence GGGAGAUGCAACAACAAGATT against Epx in this test?
Completion: inactive

Prompt: Which outcome was entered for the sequence GGUGGAGAAAUCUGCUAAUTT against Lta4h in this test?
Completion: inactive

Prompt: Which outcome was entered for the sequence GGCCAGCAAUAAAACUGUCTT against Max in this test?
Completion: inactive

Prompt: Which outcome was entered for the sequence GGAAAUCGUGCGUGGCUACTT against Phpt1 in this test?
Completion: inactive

Prompt: Which outcome was entered for the sequence CCAAAGAGAUAUCCCUCCCTT against Olfr1350 in this test?
Completion: inactive

Prompt: Which outcome was entered for the sequence GGACUCUUUUUGUUCUUUGTT against Vgll2 in this test?
Completion: inactive

Prompt: Which outcome was entered for the sequence GGAAUAAAGAAUGGUAUACTT against Zfp280d in this test?
Completion: inactive

Prompt: Which outcome was entered for the sequence GGUGGAACAGUGGAAUUCGTT against Grhpr in this test?
Completion: active

Prompt: Which outcome was entered for the sequence GGGAUCUAAAGGCUGAAAATT against Mark4 in this test?
Completion: inactive

Prompt: Which outcome was entered for the sequence GGCCAUCAAGGUCUUUUCUTT against Washc1 in this test?
Completion: inactive

Prompt: Which outcome was entered for the sequence GGUUUUGCCAAGGACGCAGTT against Ngf in this test?
Completion: inactive

Prompt: Which outcome was entered for the sequence GGGUUUAGCUCACUGAGUATT against Tm4sf5 in this test?
Completion: inactive

Prompt: Which outcome was entered for the sequence GGUGCUCCACAACACCUAUTT against 2510039O18Rik in this test?
Completion: active

Prompt: Which outcome was entered for the sequence GGUGCUGUUUAAAACACAGTT against Aurka in this test?
Completion: inactive

Prompt: Which outcome was entered for the sequence UCACCCUGUUCGUAAUCAUTT against Olfr467 in this test?
Completion: inactive

Prompt: Which outcome was entered for the sequence GGAUAAUUCACAGUUCAAATT against Tlk1 in this test?
Completion: inactive

Prompt: Which outcome was entered for the sequence GGCUUUUGGCUUCAACCCUTT against Slc39a14 in this test?
Completion: active

Prompt: Which outcome was entered for the sequence GGAUGUGAAUGAGUGUGAGTT against Fbln7 in this test?
Completion: inactive

Prompt: Which outcome was entered for the sequence GCUCGGUUAAGAGCCCAUGTT against Pabpn1l in this test?
Completion: active

Prompt: Which outcome was entered for the sequence GGAUCUUUCCUGAUUUAUATT against Ggt5 in this test?
Completion: inactive

Prompt: Which outcome was entered for the sequence GCUUGGUAGAGAUGUUAAATT against Ryr3 in this test?
Completion: inactive

Prompt: Which outcome was entered for the sequence GGAUGCUUGUGCAAAGAUGTT against Anks1b in this test?
Completion: inactive

Prompt: Which outcome was entered for the sequence GGUGGAUGUCUUCUUCAACTT against Gata2 in this test?
Completion: inactive

Prompt: Which outcome was entered for the sequence GGCAAAAUUAGCAUCAAAGTT against Slc22a3 in this test?
Completion: inactive

Prompt: Which outcome was entered for the sequence GGAACACUGGGAACGUAUCTT against Ifnk in this test?
Completion: inactive

Prompt: Which outcome was entered for the sequence GGAAAUGAAGCAUCUGUAUTT against Txnip in this test?
Completion: active

Prompt: Which outcome was entered for the sequence GGAUAUGGACUAUUCACGGTT against Dgat1 in this test?
Completion: inactive

Prompt: Which outcome was entered for the sequence GGACUUUGUGGAGAAUGUCTT against Cyp1a2 in this test?
Completion: inactive

Prompt: Which outcome was entered for the sequence GGAAACCCAGAGCAGCAGATT against Tdg in this test?
Completion: inactive

Prompt: Which outcome was entered for the sequence CGAUUAUCGGCCCAGCAAATT against Bmp1 in this test?
Completion: inactive

Prompt: Which outcome was entered for the sequence GGACUGUGCAACUUUGUGGTT against Timp3 in this test?
Completion: inactive

Prompt: Which outcome was entered for the sequence GGAUCCUGUCCACAAGCACTT against Astn1 in this test?
Completion: inactive

Prompt: Which outcome was entered for the sequence GGAGAAAAUCAACAAGAUCTT against Ppp2r2c in this test?
Completion: inactive

Prompt: Which outcome was entered for the sequence GCGAGGUGUCUCUAUCAACTT against Mrpl11 in this test?
Completion: active

Prompt: Which outcome was entered for the sequence GCUUACCAAAAGGAUAUCCTT against Zfand2b in this test?
Completion: inactive

Prompt: Which outcome was entered for the sequence GGUAAACGAUGUACAGUUGTT against Notch2 in this test?
Completion: active

Prompt: Which outcome was entered for the sequence GCCCAUAGUAUAAAAUACCTT against Dzip1 in this test?
Completion: inactive

Prompt: Which outcome was entered for the sequence GCUGGAGAUCAUCCUUCAGTT against Rph3al in this test?
Completion: inactive

Prompt: Which outcome was entered for the sequence GCUGGUGCUCUUCACCAUATT against Fbxw17 in this test?
Completion: inactive

Prompt: Which outcome was entered for the sequence GCUGGACCUUCAUGUAAUATT against Pcsk1 in this test?
Completion: inactive

Prompt: Which outcome was entered for the sequence GGAAAAUAAGCUAAGGAAGTT against Peg12 in this test?
Completion: inactive

Prompt: Which outcome was entered for the sequence GGUGUCAUCCCUGAAAGAGTT against Tert in this test?
Completion: inactive

Prompt: Which outcome was entered for the sequence CCCACAAAUUAAAGUCCGCTT against Cldn16 in this test?
Completion: inactive

Prompt: Which outcome was entered for the sequence CCUUUAAAGGGCAUAUUCATT against Clip1 in this test?
Completion: inactive
